- Tested on: SK-OV-3 ovarian
- procedureSummary: NCI tumour cell line growth inhibition, 48 h
measuredQuantity: TGI

In the examples that follow, each entry is paired with its recorded TGI.
c1cncc(C2c3[nH]c4ccccc4c3CCN2CCCN2CCCCC2)c1 (stereo unspecified) :: > 100 µM
O=c1ncc(-c2ccc(C(F)(F)F)cc2)c(NC2CCCCCC2)[nH]1 :: 64.3 µM
Nc1ncc(-c2cnn(C3CCNCC3)c2)cc1-c1nc2ccccc2o1 :: 5.78 µM

Summary for this molecule, `CC(C)(C)CN1[C@@H]2CCCC[C@H]2N(CC(C)(C)C)P1(=O)Cc1ccccc1` : TGI is 29.2 µM

Summary for this molecule, `Cc1cc(C)c(C(=O)O)c(N)c1O` : TGI is > 100 µM

Summary for this molecule, COc1ccc(NC(=O)C(=O)C(CC2C(=O)NC(=S)NC2=O)C(=O)c2ccc3ccccc3c2)c([N+](=O)[O-])c1 (stereo unspecified) : TGI is > 100 µM

Summary for this molecule, COC(=O)c1ccccc1C1CN=NC12Cc1c(C)cc(C)cc1C2=O (stereo unspecified) : TGI is > 100 µM

Summary for this molecule, `COC(=O)CCc1ccc2c(c1)CCC2` : TGI is > 100 µM

Data credit: PubChem BioAssay (NCI)
